molecular target: 3H-nitrendipine binding, membrane preparation from the cortex of the rat brain; assay: displacement of tritium-labeled nitrendipine from rat brain cortex membranes (calcium-antagonistic activity); conditions: 3H-nitrendipine 0.1 nM, TRIS buffer pH 7.4, 25° C., 60 minutes; read-out: IC50 (displacement of 50% of the radioactively labeled nitrendipine)
pIC50: −log10 of the molar value.
Binary classification by pIC50, with 7 as an inclusive lower bound for true (1); all other cases are false (0).

INPUT: Check if pIC50 >= 7 (inclusive). Item: O=C(O)C1CN(CCCC(c2ccc(F)cc2)c2ccc(F)cc2)CCN1CCOc1cccc2ccccc12 (stereo not drawn)
OUTPUT: true (1)

INPUT: Hello, I need to know if Cc1cccc(C)c1NC(=O)CN1CCN(CCCC(c2ccc(F)cc2)c2ccc(F)cc2)CC1 [Lidoflazine, reference compound] has measured pIC50 not below 7. Thanks!
OUTPUT: false (0)

INPUT: Hi, just wondering whether Fc1ccc(OCCN2CCN(CCCC(c3ccc(F)cc3)c3ccc(F)cc3)CC2)cc1 shows pIC50 of 7 or higher.
OUTPUT: true (1)

Further cases:
INPUT: Please tell me: is the compound O=[N+]([O-])c1ccc(OCCN2CCN(CCCC(c3ccc(F)cc3)c3ccc(F)cc3)CC2)cc1 at or over 7 in terms of pIC50?
OUTPUT: true (1)
